Tested on: wild-type HIV-1 (IIIB)
Experiment: microbe, parasite or virus in culture
Format: cell-based
Conditions: ratio EC50(resistant strain)/EC50(wild-type strain), IIIB
# maps each entry to its RF IIIB
No unit in the answer, only the number.

Cc1cc(C#N)cc(C)c1Oc1nc(Nc2ccc(B3OC(C)(C)C(C)(C)O3)cc2)nc2ccccc12	1.0

get_value(item= Cc1cc(C#N)cc(C)c1Oc1ccnc(Nc2ccc(B3OC(C)(C)C(C)(C)O3)cc2)n1 , readout=RF IIIB) returns 1.0

get_value(item= Cc1cc(/C=C/C#N)cc(C)c1Oc1nc(Nc2ccc(B3OC(C)(C)C(C)(C)O3)cc2)nc2ccsc12 , readout=RF IIIB) returns 1.0

get_value(item= Cc1cc(C#N)cc(C)c1Oc1nc(Nc2ccc(B3OC(C)(C)C(C)(C)O3)cc2)nc2scnc12 , readout=RF IIIB) returns 1.0
